- Tested on: Intercellular adhesion molecule (ICAM-1), Integrin alpha-L/beta-2 (Homo sapiens, UniProt P05107+P20701)
- Method notes: Inhibition of LFA-1 mediated JY-8 cell adhesion to ICAM-1, range (2-30)
- Type: functional, cell-based
Experimental readout: pIC50
Numbers only, as −log10 of the molar value.

Q: What value of measured pIC50 is listed for COc1ccccc1Sc1ccc(/C=C/C(=O)N2CCC(C(=O)O)CC2)c(Cl)c1Cl ?
Result: 8.10

====

- Tested on: Intercellular adhesion molecule (ICAM-1), Integrin alpha-L/beta-2 (Homo sapiens, UniProt P05107+P20701)
- Method notes: Inhibition of LFA-1 mediated JY-8 cell adhesion to ICAM-1, range (3-18)
- Type: functional, cell-based
Experimental readout: IC50 (nM)
Numbers only, in nM.

Q: # get_value(readout='IC50', item= CC(C)c1ccccc1Sc1ccc(/C=C/C(=O)N2CCC(C(=O)O)CC2)c(Cl)c1Cl )
Result: 6

====

- Tested on: Integrin alpha-L (Homo sapiens, UniProt P20701)
- Method notes: Inhibition of intercellular adhesion molecule-1 (ICAM-1) binding to recombinant LFA-1, range (260-270)
Experimental readout: IC50 (µM)
Give bare numbers, in µM.

Q: GET /values?readout=IC50&item= COc1ccccc1Sc1ccc(/C=C/C(=O)N2CCC(C(=O)O)CC2)c(C(F)(F)F)c1
Result: 0.265

====

- Tested on: Integrin alpha-L (Homo sapiens)
- Sequence (P20701 whole entry): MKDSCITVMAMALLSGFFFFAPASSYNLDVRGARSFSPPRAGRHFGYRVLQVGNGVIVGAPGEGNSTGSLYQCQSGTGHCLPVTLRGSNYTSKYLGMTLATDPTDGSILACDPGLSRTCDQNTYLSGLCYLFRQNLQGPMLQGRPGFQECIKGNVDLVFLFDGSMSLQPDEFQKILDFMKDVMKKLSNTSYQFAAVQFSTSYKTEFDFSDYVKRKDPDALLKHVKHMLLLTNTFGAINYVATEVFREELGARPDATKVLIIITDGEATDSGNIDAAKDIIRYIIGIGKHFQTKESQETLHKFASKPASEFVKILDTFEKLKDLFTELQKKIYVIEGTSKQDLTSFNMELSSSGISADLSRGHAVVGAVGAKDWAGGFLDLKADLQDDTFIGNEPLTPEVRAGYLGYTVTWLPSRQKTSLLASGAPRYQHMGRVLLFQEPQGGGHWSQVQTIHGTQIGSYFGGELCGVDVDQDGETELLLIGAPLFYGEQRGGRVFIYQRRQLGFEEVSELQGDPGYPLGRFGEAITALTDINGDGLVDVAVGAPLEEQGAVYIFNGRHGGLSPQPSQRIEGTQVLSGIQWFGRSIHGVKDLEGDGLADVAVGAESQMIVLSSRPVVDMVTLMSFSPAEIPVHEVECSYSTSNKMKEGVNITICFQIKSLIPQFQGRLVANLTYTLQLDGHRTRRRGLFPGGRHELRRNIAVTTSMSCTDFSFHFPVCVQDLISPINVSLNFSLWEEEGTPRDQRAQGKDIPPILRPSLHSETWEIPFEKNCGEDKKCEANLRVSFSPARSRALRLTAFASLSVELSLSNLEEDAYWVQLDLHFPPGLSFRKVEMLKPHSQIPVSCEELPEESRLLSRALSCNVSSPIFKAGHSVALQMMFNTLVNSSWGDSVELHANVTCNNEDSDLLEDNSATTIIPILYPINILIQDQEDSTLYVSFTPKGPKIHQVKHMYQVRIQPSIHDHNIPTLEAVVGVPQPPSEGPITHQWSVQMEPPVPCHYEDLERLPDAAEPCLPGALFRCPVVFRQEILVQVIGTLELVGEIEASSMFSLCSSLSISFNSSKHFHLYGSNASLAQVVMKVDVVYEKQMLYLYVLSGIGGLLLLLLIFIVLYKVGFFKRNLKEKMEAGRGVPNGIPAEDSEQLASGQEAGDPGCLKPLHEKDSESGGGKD
- Method notes: Inhibition of intercellular adhesion molecule-1 (ICAM-1) binding to recombinant LFA-1, range (6-9)
Experimental readout: IC50 (nM)
Give bare numbers, in nM.

Q: May I ask what IC50 has been recorded for O=C(O)C1CCN(C(=O)/C=C/c2ccc(Sc3ccc4c(c3)OCCO4)c(Cl)c2Cl)CC1 ?
Result: 7

Sourced from ChEMBL document CHEMBL1134304
